system: SF-295 CNS; experiment: NCI-60 one-dose screen, 48 h (100 = growth as untreated, 0 = no growth, -100 = all killed); settings: 10 µM
Compounds without any hit were thinned out: in the full panel of roughly 83,000, 20% have a hit.
Label 1 for high-side growth (at or above 80%) and -1 for low-side growth (below it).

[[record]]
compound = "N#Cc1c(-c2ccccc2)nc(SCC(=O)N2CCOCC2)[nH]c1=O"
category_label = 1

[[record]]
compound = "CCOC(=O)c1ccc(NC(=O)Nc2nncs2)cc1"
category_label = -1

[[record]]
compound = "Cc1cc(OI)c(C(C)C)cc1-c1cc(C(C)C)c(OI)cc1C"
category_label = 1

[[record]]
compound = "Fc1ccc2[nH]c3c(NCCCN4CCOCC4)ncnc3c2c1"
category_label = -1

[[record]]
compound = "Cc1cc(=O)oc2cc(OCc3cn(CC(O)CO)nn3)ccc12 (stereo unspecified)"
category_label = 1

[[record]]
compound = "CCOC(=O)C(=O)Cc1cccnn1"
category_label = 1

[[record]]
compound = "FC(F)(F)c1ccc(-c2nc(-c3nc4cc(Cl)c(Cl)cc4[nH]3)c3ccccn23)cc1"
category_label = -1

[[record]]
compound = "N#CC1C=Cc2c(ccc3ccccc23)N1C(=O)c1ccccc1 (stereo unspecified)"
category_label = -1

[[record]]
compound = "Fc1cc(-c2ncc(-c3cc(F)c(F)c(F)c3)c(NC3CCCCCC3)n2)cc(F)c1F"
category_label = 1


Data provenance is PubChem BioAssay (NCI).
